assayed system: T1, recombinant Psb28 (from pIVEXPsb28His) (T. elongatus, UniProt Q8DLJ8 2-116)
T1 sequence: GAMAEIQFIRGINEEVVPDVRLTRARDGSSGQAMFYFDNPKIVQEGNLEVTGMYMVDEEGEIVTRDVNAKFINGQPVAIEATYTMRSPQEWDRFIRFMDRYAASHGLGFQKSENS
assay procedure: NMR titration
Where no end group is shown, it is not given here.
measurement kind: Kd (µM)
Answer in µM, number only, no unit symbol.

Kd for Ac-SGIDPELSPEQVEWGFYQKV [carboxy-terminal peptide from residues 480-499 of CP47] is 53.9

Data origin: paper doi:10.1101/2020.09.14.294884
